experimental.protocol: label from the status in PepcDB records

| query.sequence | protein production |
| --- | --- |
| MDELELRIRKAEKLVQDAKKEFEMGLYERCCSTAYYAMFHAAKAMLLGYGRDSKTHRGTIYLIWECREELGLSDDDCSKLSRAFDLREESDYGIYKEVSKDLAIKILKDAEIFVQKAKNAVNKNR | not failed |
| NKYNKIANELIKIIGEDNIISITHCATRLRVMVKDREIINDKKVEKVDEVKGVFFTSGQYQIILGTGIVNKVYAEVEKMGLKTLSKKEQDELVKNNE | not failed |
| MKLSVCTITFRHHLLCFSEIVEWTQRNGFDGVELWGAHARGLMRTHPEYDADWLRSYGLSVPMLSDYLPTDGDITDTRHRAIELCRIAQHWSARKIRTFAGNRPSAQLSREQRRALAGRIGEIAGIVHDHGIRLLVETHPNTLADNVDSTLGLLADANHPGLGINFDALHVWEGGDDPVLARRTLADFIGHYHLKNVRSRDELGVFAPENVYSAAGSRDGMVPLFDGAMDYEGFLASLADETDAEASLEWFGHDCFETLARDRLAIFARSISTRGRRGSAGTQQARLAESRAAGRAASSKGPSCI | failed |
| MARGIWGVDSAQVVTDQLFQCVRTELGYPKFWGRYLSEVPNVSEGLTRDEIVRIRNYGVKVLPIYNAFREAVGYANGQVAARNAVFHARRLGIPKNKLLFANIEDFFAVDAAWIAAWVETLYPTGYRPGLYADPTKGDFAAAYCEAVSRNNQVAVQAVIWSAAPRPGTTKEQKAPRYQPAAPPCSANVWVWQYGRDAEVCPVDTNLADRRLLDFLY | not failed |
| MKFLVGYSNDSSGKDALKLGVALAEMTQGKLIVCHIVAKTWHNIALAKFDEDYDQFLCDEAQKALDDAKLAVPSHIEARYIARTALSISEGLKQTAKELSVDCMVISGARIAIKGQFFSGTVADELLNQLSLPVALAPKGFAKNQGFTSPLTRLSCAVSGSDQSCNLAISAGEWAEIFNVPLRFVTFAVRDRDITPTAAGFDAENMVINEWREQIEAEYAQATQHWESDVPISLEIGDGPTWKESIQSIDWQASELLIVGTTTSGIFKQVLVGKNAEKIIRYASVPRLVLPRSTD | failed |
| NIGSAVPRGELVLAMEKIGKLLQERGGSVVIRGHTDGRQFKGEANDNWRLSMDRAHSAYYMLVRGGLSEERVKQVSGFADRRLQVPSNPLADANRRIEILLEADR | failed |

These entries and their values trace back to a protein production outcome set (Wang et al. 2014).
